Recorded values, source patent US20240327535A1.

assaySystem: T1, extracellular domain of human BCMA (human, UniProt Q02223 1-54)
T1 construct: amine-linked to Octet AR2G tips; also called hsBCMA; BCMA (human)
T1 sequence: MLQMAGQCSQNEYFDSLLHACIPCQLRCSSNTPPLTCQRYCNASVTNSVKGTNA
protocolDescription: Octet BLI; Fab 200 nM
The binders listed here are annotated with their pKd.
A value of pKd is the negative decimal logarithm of a concentration given in moles per litre.

AB200-(2Vk35)_R2-VH-v26 (Fab, V domains shown) VH: QVQLVQSGAEVKKPGSSVKVSCKASGGTFSNYWIHWVRQAPGQGLEWMGATYRSHSTTYYAQKFKSRVTITADKSTSTAYMELSSLRSEDTAVYYCARGAIFHGYDVIDNWGQGTLVTVSS VL: DIQMTQSPSSLSASVGDRVTITCRASQSISSYINWYQQKPGKAPKLLIYATSNLQSGVPSRFSGSGSGTDFTLTISSLQPEDFATYYCQQYRRIPWTFGQGTKLEIKR    7.68

Now for the binder whose pKd we want.
Exercise: Consider the binder AB200-(2Vk35)_R2-VH-v36 (Fab, V domains shown) VH: QVQLVQSGAEVKKPGSSVKVSCKASGGTFSNYWIHWVRQAPGQGLEWMGATYRSHSDTYYAEKFKSRVTITADKSTSTAYMELSSLRSEDTAVYYCARGAIFHGYDVIDNWGQGTLVTVSS VL: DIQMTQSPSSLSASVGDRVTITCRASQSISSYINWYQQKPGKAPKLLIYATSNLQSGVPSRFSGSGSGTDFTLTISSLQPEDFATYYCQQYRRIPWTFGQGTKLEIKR and give its measured pKd.
Key: 8.50
